# ASSAY TARGET: ACE2 (human, UniProt Q9BYF1 18-740)
# Sequence (Q9BYF1 18-740 limits assumed): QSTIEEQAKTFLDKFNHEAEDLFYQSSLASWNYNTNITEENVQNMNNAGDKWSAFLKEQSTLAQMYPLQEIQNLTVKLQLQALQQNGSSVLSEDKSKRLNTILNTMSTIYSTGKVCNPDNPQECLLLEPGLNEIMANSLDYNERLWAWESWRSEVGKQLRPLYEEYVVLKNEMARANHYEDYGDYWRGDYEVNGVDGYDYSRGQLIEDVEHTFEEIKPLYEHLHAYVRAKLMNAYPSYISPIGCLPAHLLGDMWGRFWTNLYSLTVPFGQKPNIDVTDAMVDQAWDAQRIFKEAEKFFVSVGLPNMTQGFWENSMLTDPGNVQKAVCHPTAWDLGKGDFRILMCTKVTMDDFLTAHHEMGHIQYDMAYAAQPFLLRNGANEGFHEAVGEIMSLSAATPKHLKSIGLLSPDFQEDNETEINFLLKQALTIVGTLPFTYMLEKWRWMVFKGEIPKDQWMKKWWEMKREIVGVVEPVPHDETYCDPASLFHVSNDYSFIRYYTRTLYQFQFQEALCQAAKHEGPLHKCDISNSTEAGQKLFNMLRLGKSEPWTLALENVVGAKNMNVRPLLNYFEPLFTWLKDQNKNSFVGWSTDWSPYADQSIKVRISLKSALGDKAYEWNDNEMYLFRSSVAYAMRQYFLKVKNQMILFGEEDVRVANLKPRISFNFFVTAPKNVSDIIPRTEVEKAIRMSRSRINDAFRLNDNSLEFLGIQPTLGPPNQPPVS
Rule: koff under 0.003 s⁻¹ gives no (0), otherwise yes (1).

# count of solved cases: 3
BINDER | LABEL
ACE2 variant antibody 4-69 (VHH) VHH: EVQLVESGGGLVQPGGSLRLSCAASGRTFSDDAMGWFRQAPGKEREFVAAINWSGGTTRYADSVKGRFTISADNSKNTAYLQMNSLKPEDTAVYYCATDPPLFWGQGTLVTVSS | no (0)
ACE2 variant antibody 3-12 (antibody, V domains shown) VH: EVQLLESGGGLVQPGGSLRLSCAASGFTFRSHAMNWVRQAPGKGLEWVSAISGSGGSTNYADSVKGRFTISRDNSKNTLYLQMNSLRAEDTAVYYCARGLKFLEWLPSAFDIWGQGTLVTVSS VL: DIQMTQSPSSLSASVGDRVTITCRTSQSINTYLNWYQQKPGKAPKLLIYGASNVQSGVPSRFSGSGSGTDFTLTISSLQPEDFATYYCQQSYRIPRTFGQGTKVEIK | yes (1)
ACE2 variant antibody 4-95 (VHH) VHH: EVQLVESGGGLVQPGGSLRLSCAASGRTFGDYIMGWFRQAPGKEREIVAAINWSAGYTAYADSVKGRFTISADNSKNTAYLQMNSLKPEDTAVYYCATAPPLFCWHFDHWGQGTLVTVSS | yes (1)

Challenge: # bool: koff of ACE2 variant antibody 4-63 (VHH) VHH: EVQLVESGGGLVQPGGSLRLSCAASGRTFSDYTMGWFRQAPGKEREFVAAINWSGGYTYYADSVKGRFTISADNSKNTAYLQMNSLKPEDTAVYYCATDPPLFWGQGTLVTVSS >= 0.003 s⁻¹
Response given: no (0)

Challenge: Now this one: ACE2 variant antibody 4-67 (VHH) VHH: EVQLVESGGGLVQPGGSLRLSCAASGRTFSDDTMGWFRQAPGKEREFVAAINWSGDSTYYADSVKGRFTISADNSKNTAYLQMNSLKPEDTAVYYCATDPPLFWGQGTLVTVSS
Response given: no (0)

Challenge: Now this one: ACE2 variant antibody 4-39 (VHH) VHH: EVQLVESGGGLVQPGGSLRLSCAASGRTFSNAAMGWFRQAPGKEREFVARILWTGASRNYADSVKGRFTISADNSKNTAYLQMNSLKPEDTAVYYCATTENPNPRWGQGTLVTVSS
Response given: yes (1)

Challenge: Now this one: ACE2 variant antibody 4-33 (VHH) VHH: EVQLVESGGGLVQPGGSLRLSCAASGFTFSRHDMGWFRQAPGKEREFVAGINWESGSTNYADSVKGRFTISADNSKNTAYLQMNSLKPEDTAVYYCAADRGVYGGRWYRTSQYTWGQGTLVTVSS
Response given: no (0)

The reported numbers originate from patent US20210355194A1.
